# Test system: K4 kissing-loop RNA reporter
# experiment.summary: apparent KD of K4 kissing-loop reporter; higher = weaker reporter binding
# experimental.conditions: Eterna round: R107; input ligand: none
measured.endpoint: apparent KD of K4 kissing-loop reporter (nM)
The reply should contain only the number, in nM.

Recorded results for 5 sequences are shown here.
seq	measured.endpoint	experimental.value
AAGUUGAACUGAAGGAGCGAGAAAUAGAAUGUAAGAAUAUAUGCUAGUGAUGUUAGAAAUUCUCAGGUAGGUCGCAGUAAGUUUU [V2]	apparent KD of K4 kissing-loop reporter	474
GUUACGCAUGGAAGGAGCGCAUGCUCAACAAUAAGCUCAGUGAUGUUGAGCAAAAUUAAAAUGCAGGUAGGUCGCCAUGUGUAAC [Ex Arginine B K4 28]	apparent KD of K4 kissing-loop reporter	576
AAUUAAUGUAUAGAUUAUAUACAUUAAUCAGAGGAUAUGCAUUGUUGCAGAAGGCUGAAUGCAGUGAUGUUGCAAUGGAAAUUUA [JR_SSFMNA_Sub004]	apparent KD of K4 kissing-loop reporter	181
UUUAUAUUGUCGGCCGCCACUGGAUUAAUAUUUGUAUAAUCUAGUUCAAAGUGAUGUUUUGAGUCCAGGACCGGGACAUUUGAUA [JR_Nu_ExcTryptoB_Sub029]	apparent KD of K4 kissing-loop reporter	624
GGAGUUACCUGGGAUACCAGUCGGAGUCUCAGAGCUCGGAGUGAUGUUCUGGGAUGUUUCGGCCCUUGGCAGCUCUGGGACUCCU [#2 Exclusion - Theophylline B Attempt #17 (HarryS)]	apparent KD of K4 kissing-loop reporter	747

Now turn to the next sequence.
Query block: What does the record list as apparent KD of K4 kissing-loop reporter for GGAUAGGAUAGAGGAUAUGGAAAACACAGAAAUAACUUGUUGUGUUUAUCCAUAGGGAGUGAUGUUCCAGAAGGCUGUCCUAUCG [MatMod 20 - Jieux - Exclusion - FMN B] ?
Result block: 192

---

Catalogue of sequences with associated apparent KD of K4 kissing-loop reporter
# System: K4 kissing-loop RNA reporter;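 also: bound reporter read as fluorescence of individual clusters on recovered sequencing chips by microscopy, with normalized cluster intensities fitted with a binding model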
# experiment.summary: apparent KD of K4 kissing-loop reporter; higher = weaker reporter binding
# experimental.conditions: Eterna round: R107; input ligand: arginine 13.2 mM
The reply should contain only the number, in nM.

Recorded results for 5 sequences are shown here.
seq	assay.system	experimental.value
UAUAUACAUUUAUUAAUUAAAGGUUCAGAAGGAGCGUGAAUUAACACAGGUAGGUCGCUGAGCGAGUGAUGUUCGCUAUAUGGAA [JR_ExcArginiA_Sub006]	K4 kissing-loop RNA reporter	69.3
AGGGAUGUUAAAGGAUAUAGAAAGUGAUGUUAGAAAGUGAGUGAUGUUGAUGUAAGUGAUGUUAUGUUAGAAGGUUAACAAAACG [ab]	K4 kissing-loop RNA reporter	120
UGCAUGCUUGGAGUGAUGUUCCAAGAUGAUACCAGUGCUUUUUUGCACCCUUGGCAGCGUCUGAUUGCAUGCACGUCGAAAGACG	K4 kissing-loop RNA reporter	471
AUUGAACAAGUGAUGUUUGUAUUUUCCGAAGGAGCGUCUAAUAAGACAGGUAGGUCGCGGUUUCUCUUAAUAAUCAGGUCUUUAA [JR_Nu_ExcArginiA_Sub021]	K4 kissing-loop RNA reporter	287
UGAUACCAGACGGCCGCCACUGGGACCGGGAGUGAUGUUCCAAAUAAAAGAAGCUCGGCCGCCACUAGGACCGGGUCUGGUAUCU [TrypBX 21 #DoubleAptamer #SwitchBubble]	K4 kissing-loop RNA reporter	261

Query block: What does the record list as apparent KD of K4 kissing-loop reporter for AACCGAGGUAAUCCACAAAGAUAACAUGAUACCAGAUAUAUAAAUAUCCCUUGGCAGCAUGGCAUGAGUGAUGUUCAUGUGUCUU [KL-SSTheo-A10] ?
Result block: 325

Query block: What does the record list as apparent KD of K4 kissing-loop reporter for UACUUUAAUUUAUAACUAUCUUUAUUUUGUCAGGAUAUCGUAUAGUCGAGAAGGGACUCUAUCAAGUGAUGUUUGAUAUAUCGUU [JR_SSFMNA_Sub025] ?
Result block: 155

Query block: What does the record list as apparent KD of K4 kissing-loop reporter for ACUGAAAGAUCUGAUACCAGACUUUUUGUAUUUAUUAAAACUAGUGAUGUUAGUUUAUCUGUCCCUUGGCAGCAGUUUCUACAGA [JR_Nu_ExcTheophyB_Sub023] ?
Result block: 132

Query block: What does the record list as apparent KD of K4 kissing-loop reporter for AAAGCAUUGAGAAGGAGCGUGACGUGGAGUGAUGUUCCAUUGUAGUAAUAAUUACUACUAUCACAGGUAGGUCGCUCAUUGCUAA [JR_Nu_SSArginiB_Sub024] ?
Result block: 159

Query block: What does the record list as apparent KD of K4 kissing-loop reporter for UGGAGUGCCUGGUCGUCACUAUGCCAACCACGAGGACCGGUACGGCCGCCACUCGUGAGGGAUAUUCAGAAAGUGAUGUUUUUUG [theeternabot_exclusion_KL_Trp_A_1] ?
Result block: 370

Query block: What does the record list as apparent KD of K4 kissing-loop reporter for CUAUGGAAACAUAGUGAUCGGGAAACCGAUACCAGUAUGGAAACAUACCCUUGGCAGCGGAAUGAUCUAACGGAGUGAUGUUCCG [Theophylline A K4 23] ?
Result block: 456

Query block: What does the record list as apparent KD of K4 kissing-loop reporter for AUUAUAUUGUGAAGGAGCGCGAAUAGCAGUGAUGUUGCUAUCAAACGAUAUAUUAUUUACACGCAGGUAGGUCGCACAAUAUAUA [JR_Nu_SSArginiB_Sub022] ?
Result block: 125
